assay: p53 small molecule agonists, cell-based qHTS assay with rat liver microsomes: qHTS cell viability counter screen (AID 1963580); conditions: p53RE-bla HCT-116 + rat microsomes, ATP viability, 16 h; series mostly up to 66 µM; note: % is set by controls: 0 for no effect and ±100 for the full control effect; nearly all actives have a fitted effect of over 45% in size
Results filed as inconclusive are left out. Calls of active or inactive are those of the source. Calls come from the whole dose curve.

{"Compound": "CCCCCCCCCCOc1cc2c(=O)c(C(=O)OCC)c[nH]c2cc1OCC", "activity change, negative = cytotoxicity": "11.2% [at 5.99 µM] (inactive)"}
{"Compound": "C1CC(COCC2CO2)CCC1COCC1CO1 (configuration not stated)", "activity change, negative = cytotoxicity": "inactive"}
{"Compound": "Cc1nc2ccccn2c(=O)c1CCN1CCC(C(=O)c2ccc(F)cc2)CC1", "activity change, negative = cytotoxicity": "inactive"}
{"Compound": "Nc1nc2c(ncn2COCCO)c(=O)[nH]1", "activity change, negative = cytotoxicity": "inactive"}
{"Compound": "CN1CCN(N)CC1", "activity change, negative = cytotoxicity": "inactive"}
{"Compound": "CO/N=C(\\C(=O)O)c1csc(NC(=O)CCl)n1", "activity change, negative = cytotoxicity": "inactive"}
{"Compound": "Nc1nc(-c2ccccc2)c(Br)c(=O)[nH]1", "activity change, negative = cytotoxicity": "inactive"}
